Would you kindly list Kd for each of these binders?
# experimental system: T1, CD28 (detection antigen of the BLI assay) (human, UniProt P10747 19-152, limits assumed)
# T1 construct: also called the antigen
# assay overview: BLI (GATOR); antibody loaded at 30 nM, antigen 300-37.5 nM

Could I get Kd for every one of these entries?
1. huVH4huVL3 (antibody, human IgG1, kappa, V domains shown) VH: QVQLQESGPGLVKPSETLSLTCTVSGFSLSDYGVHWIRQPPGKGLEWIGVIWAGGGTNYNSALKSRVTISVDTSKNQVSLKLSSVTAADTAVYYCARDKGYSYYYSMDYWGQGTTVTVSS VL: DIQLTQSPSSLSASVGDRVTITCRASESVEYYVTSLMQWYQQKPGKAPKLLIFAASNVESGVPSRFSGSGSGTDFTLTISSLQPEDFATYYCQQSRKVPYTFGGGTKLEIKR
2. huVH3huVL2 (antibody, human IgG1, kappa, V domains shown) VH: QVQLQESGPGLVKPSETLSLTCTVSGFSLSDYGVHWVRQSPGKGLEWIGVIWAGGGTNYNSALKSRKTISKDNSKSQVSLKLSSVTAADTAVYYCARDKGYSYYYSMDYWGQGTTVTVSS VL: DIQLTQSPSSLSASVGDRVTITCRASESVEYYVTSLMQWYQQKPGKAPKLLIFAASNVESGVPSRFSGSGSGTNFTLTISSVQPEDFATYFCQQSRKVPYTFGGGTKLEIKR

["11.2 nM", "9.13 nM"]

Could I get Kd for every one of these entries?
1. huVH2huVL3 (antibody, human IgG1, kappa, V domains shown) VH: QVQLQESGPGLVKPSETLSITCTVSGFSLSDYGVHWVRQPPGKGLEWLGVIWAGGGTNYNSALMSRKTISKDTSKNQVSLKMSSLTAADTAVYYCARDKGYSYYYSMDYWGQGTTVTVSS VL: DIQLTQSPSSLSASVGDRVTITCRASESVEYYVTSLMQWYQQKPGKAPKLLIFAASNVESGVPSRFSGSGSGTDFTLTISSLQPEDFATYYCQQSRKVPYTFGGGTKLEIKR
2. huVH5huVL3 (antibody, human IgG1, kappa, V domains shown) VH: QVQLQESGPGLVKPSETLSLTCTVSGFSISDYGVHWIRQPPGKGLEWIGVIWAGGGTNYNPSLKSRVTISVDTSKNQVSLKLSSVTAADTAVYYCARDKGYSYYYSMDYWGQGTTVTVSS VL: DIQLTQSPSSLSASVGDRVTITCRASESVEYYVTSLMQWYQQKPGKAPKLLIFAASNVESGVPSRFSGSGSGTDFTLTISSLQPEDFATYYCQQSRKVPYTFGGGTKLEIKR
3. huVH2huVL2 (antibody, human IgG1, kappa, V domains shown) VH: QVQLQESGPGLVKPSETLSITCTVSGFSLSDYGVHWVRQPPGKGLEWLGVIWAGGGTNYNSALMSRKTISKDTSKNQVSLKMSSLTAADTAVYYCARDKGYSYYYSMDYWGQGTTVTVSS VL: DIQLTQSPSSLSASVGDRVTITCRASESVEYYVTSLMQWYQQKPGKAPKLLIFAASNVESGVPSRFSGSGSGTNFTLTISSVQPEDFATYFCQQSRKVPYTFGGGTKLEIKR

["7.44 nM", "11.5 nM", "6.59 nM"]
